Values were extracted from the supplement of paper PMC6992640.

Test system: UCD52 (cells of a triple-negative basal-like breast cancer xenograft)
Experiment: cell viability of combination (% of vehicle); higher = less cytotoxic
Settings: 1 µM; 72 h; partner dose: 10 nM
property_measured: cell viability of combination
Respond using a number only.

Query block: Find the measured cell viability of combination of Cl.Clc1ccccc1CN1CCc2sccc2C1 [Ticlopidine HCl] + CN(C)C/C=C/C(=O)Nc1cc2c(Nc3ccc(F)c(Cl)c3)ncnc2cc1O[C@H]1CCOC1 with UCD52 as test system.
Result block: 75.9

Query block: Give cell viability of combination for CNCCCC12CCC(c3ccccc31)c1ccccc12.Cl [Maprotiline HCl] + CN(C)C/C=C/C(=O)Nc1cc2c(Nc3ccc(F)c(Cl)c3)ncnc2cc1O[C@H]1CCOC1 tested on UCD52.
Result block: 61.4

Query block: Fill: cell viability of combination (UCD52) for this compound CCCSc1nc(NC2CC2c2ccc(F)c(F)c2)c2nnn(C3CC(OCCO)C(O)C3O)c2n1 (centres undefined) [Ticagrelor] + CN(C)C/C=C/C(=O)Nc1cc2c(Nc3ccc(F)c(Cl)c3)ncnc2cc1O[C@H]1CCOC1
Result block: 72.2

Query block: Please indicate recorded cell viability of combination of COCCn1c2c([n+](Cc3cnccn3)c1C)C(=O)c1ccccc1C2=O.[Br-] + CN(C)C/C=C/C(=O)Nc1cc2c(Nc3ccc(F)c(Cl)c3)ncnc2cc1O[C@H]1CCOC1 measured with UCD52.
Result block: 15.2
